What cell viability was measured for each of the following?
system: MARIMO; test: cell viability relative to vehicle control; higher = less cytotoxic; details: 10 µM; SRSF2 genotype: SRSF2 wt/wt;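 further: after 48 h exposure read by CellTiter-Glo luminescence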
One number for each entry, in %.

Sample records with cell viability:
O=c1[nH]c(=O)n(C2CC(O)C(CO)O2)cc1I (centres undefined) :: 98.3
Oc1ccc2c(c1)OC[C@]1(O)Cc3cc(O)c(O)cc3[C@H]21 :: 11.3

Report cell viability for every entry below.
1. CC[C@@H]1C(=O)N(C)c2cnc(Nc3ccc(C(=O)N[C@H]4CC[C@H](N5CCN(CC6CC6)CC5)CC4)cc3OC)nc2N1C(C)C
2. CCOc1cc(CC(=O)N[C@@H](CC(C)C)c2ccccc2N2CCCCC2)ccc1C(=O)O [Repaglinide]
3. C[C@H]1C[C@H]2[C@@H]3CCC4=CC(=O)C=C[C@]4(C)[C@@]3(F)[C@@H](O)C[C@]2(C)[C@@]1(O)C(=O)CO
4. Cc1ccc(-c2csc(NC(=O)c3ccccc3)n2)c(C)c1
5. C[C@H](N=C(NC#N)Nc1cccc2ncccc12)c1ccccc1
6. O=C(O)Cc1cccc2ccccc12 [1-Naphthaleneacetic acid]
7. CCCCCCCCCCCC[N+](C)(C)CCOc1ccccc1 [Domiphen Bromide]

[16.7, 101, 98.4, 81, 107, 98.3, 0.55]

----------
tested on: OCI-AML2; assay: cell viability relative to vehicle control; higher = less cytotoxic; settings: 10 µM; SRSF2 genotype: P95H/wt
measured.quantity: cell viability (%)
One number for each entry, in %.

Sample records with cell viability:
O=c1c(O)c(-c2ccc(O)c(O)c2)oc2cc(O)ccc12 :: 102
CN1CCc2cc(Nc3ncc(C4CC4)c(NCCCNC(=O)C4CCC4)n3)ccc2C1 :: 1.22

Report cell viability for every entry below.
1. CCNC(=O)C#Cc1ccc2c(C(=Nc3ccc(CN(C)C)cc3)c3ccccc3)c(O)[nH]c2c1
2. C=CCNC(N)=S
3. O=c1cc(N2CCOCC2)oc2c(-c3ccc4c(c3)OCCO4)csc12

1. 11.9
2. 99.8
3. 3.38

----------
test system: OCI-AML2; test: cell viability relative to vehicle control; higher = less cytotoxic; settings: 10 µM; SRSF2 genotype: P95H/wt
What cell viability was measured for each of the following?
Give bare numbers, in %.

Sample records with cell viability:
Cc1onc(-c2ccccc2)c1-c1ccc(S(N)(=O)=O)cc1 :: 81.8
CC1=CC(=O)CC(C)(C)C1=O :: 96.1
c1ccc(Cn2c(-c3ccc(OCC(C4CCNCC4)n4c(-c5ccccc5)nc5ccccc54)cc3)nc3ccccc32)cc1 (configuration not stated) :: 0.24

Report cell viability for every entry below.
1. CC[C@H]1OC(=O)[C@H](C)[C@@H](O[C@H]2C[C@@](C)(OC)[C@@H](O)[C@H](C)O2)[C@H](C)[C@@H](O[C@@H]2O[C@H](C)C[C@H](N(C)C)[C@H]2O)[C@](C)(O)C[C@@H](C)C(=O)[C@H](C)[C@H]2OC(=O)O[C@@]21C [Erythromycin Cyclocarbonate]
2. Cn1c(O)c(C2=c3ccccc3=NC2=O)c2ccccc21
3. CCCC(CCC)C(=O)O[C@H]1C[C@H]2CC[C@@H](C1)[N+]2(C)C [anisotropine methylbromide]
4. CCCCCCCC(=O)CCc1ccc(O)c(OC)c1

1: 99; 2: 0.36; 3: 106; 4: 94.1

----------
system: OCI-AML2; assay: cell viability relative to vehicle control; higher = less cytotoxic; conditions: 10 µM; SRSF2 genotype: wt/wt
Counter-ions that a name gives are not always drawn.
Response field label takes satisfied when cell viability is strictly below 90% and not satisfied in all other cases.

Example cases with answers are listed next.
CCCCOc1c(C(=O)c2c(F)cc(C)cc2F)c[nH]c2nncc1-2 :: satisfied
Cc1ccc(N(CC2=NCCN2)c2cccc(O)c2)cc1 [Phentolamine Mesylate] :: satisfied
O=C1NS(=O)(=O)c2ccccc21 :: not satisfied
COC(=O)[C@H](CC(C)C)NC(=O)c1ccc(NC[C@@H](N)CS)cc1-c1cccc2ccccc12 [GGTI 298 TFA salt] :: satisfied
O=S(=O)(O)CCS :: not satisfied

Identify whether the compound CCCCCCCCCC(C)=O records cell viability below 90%.
not satisfied

Identify whether the compound CC(C)[C@H](NC(=O)OCc1ccccc1)C(=O)N[C@@H](C)C(=O)N[C@@H](CC(=O)O)C(=O)CF records cell viability below 90%.
not satisfied

Identify whether the compound C=C(C)[C@@H]1CCC2=CC(=O)C[C@@H](C)[C@]2(C)C1 records cell viability below 90%.
not satisfied

Identify whether the compound COc1ccc([C@@H]2OC[C@H]3[C@@H]2CO[C@@H]3c2ccc3c(c2)OCO3)cc1OC records cell viability below 90%.
satisfied

----------
What cell viability was measured for each of the following?
test system: OCI-AML2; test: cell viability relative to vehicle control; higher = less cytotoxic; details: 10 µM; SRSF2 genotype: wt/wt
Counter-ions that a name gives are not always drawn.
Mention the unit after the number when you answer.

Sample records with cell viability:
CO/N=C(\C(=O)N[C@@H]1C(=O)N2C(C(=O)[O-])=C(C[N+]3(C)CCCC3)CS[C@H]12)c1csc(N)n1 [Cefepime Dihydrochloride Monohydrate] :: 113%
CC1(COc2ccc3c(c2)ncn3-c2ccc3cccc(N4CCC(N)CC4)c3n2)COC1 :: 13%
CS(=O)(=O)Nc1cc2occ(NC=O)c(=O)c2cc1Oc1ccccc1 :: 123%

Report cell viability for every entry below.
1. CN(C)c1ccc(C(=C2C=CC(=[N+](C)C)C=C2)c2ccc(N(C)C)cc2)cc1
2. Nc1ccccc1NC(=O)c1ccc(CNC(=O)OCc2cccnc2)cc1
3. C[C@H]1[C@H](NC(=O)/C(=N\OC(C)(C)C(=O)O)c2csc(N)n2)C(=O)N1S(=O)(=O)O
4. CC(=O)Oc1cc(C(F)(F)F)ccc1C(=O)O

["0.11%", "4.33%", "104%", "102%"]

Which measured cell viability value corresponds to NC(=O)c1ccc(I)c([N+](=O)[O-])c1 ?
114%

----------
test system: OCI-AML2; test: cell viability relative to vehicle control; higher = less cytotoxic; settings: 10 µM; SRSF2 genotype: P95H/wt
Counter-ions that a name gives are not always drawn.
measured.quantity: cell viability (%)
Numbers only, in %.

Cc1c(CN2CCC(Nc3ncnc4sc(CC(F)(F)F)cc34)CC2)ccc2[nH]c(C#N)cc12 :: 0.4
CN(C)[C@@H](CCOc1cccc2ccccc12)c1ccccc1 [Dapoxetine hydrochloride (Priligy)] :: 58.9

Report cell viability for every entry below.
1. O=C1CCC(N2C(=O)c3ccccc3C2=O)C(=O)N1 (stereo not given) [Thalidomide]
2. CN(c1ccccc1CNc1nc(Nc2ccc3c(c2)CC(=O)N3)ncc1C(F)(F)F)S(C)(=O)=O

1. 93.8
2. 1.33

Report cell viability for every entry below.
1. O=C1NC(=O)/C(=C/c2ccc(-c3ccc(F)cc3O)o2)S1
2. CCOC(=O)c1ccc(O)c(OC)c1 [Ethyl Vanillate]
3. N#Cc1c(O)c2c(-c3ccc(-c4ccccc4O)cc3)csc2[nH]c1=O
4. C#Cc1cccc(Nc2ncnc3cc4c(cc23)OCCOCCOCCO4)c1
5. COc1cnc(NS(=O)(=O)c2ccc(N)cc2)nc1
6. CN(C)C(=O)[C@H](O)[C@H](Cc1ccccc1)NC(=O)c1cc2cc(Cl)ccc2[nH]1

1. 62.3
2. 103
3. 93.1
4. 94.9
5. 115
6. 90

----------
tested on: MOLM14; experiment: cell viability relative to vehicle control; higher = less cytotoxic; details: 10 µM; SRSF2 genotype: SRSF2 wt/wt
measured.quantity: cell viability (%)
One number for each entry, in %.

Sample records with cell viability:
C[C@H](CC[C@@]1(O)O[C@H]2C[C@H]3[C@@H]4CC=C5C[C@@H](O[C@@H]6O[C@H](CO)[C@@H](O[C@@H]7O[C@@H](C)[C@H](O)[C@@H](O)[C@H]7O)[C@H](O)[C@H]6O[C@@H]6O[C@@H](C)[C@H](O)[C@@H](O)[C@H]6O)CC[C@]5(C)[C@H]4CC[C@]3(C)[C@H]2[C@@H]1C)CO[C@@H]1O[C@H](CO)[C@@H](O)[C@H](O)[C@H]1O :: 0.55
CCCCC(=O)N(Cc1ccc(-c2ccccc2-c2nnn[nH]2)cc1)[C@H](C(=O)O)C(C)C :: 106
Nc1ccccc1NC(=O)c1ccc(CNc2nccc(-c3cccnc3)n2)cc1 :: 0.42

Report cell viability for every entry below.
1. NC(=O)c1ncn([C@@H]2O[C@H](CO)[C@@H](O)[C@H]2O)n1
2. CCn1c(=O)c(-c2ccc(-c3cncs3)cc2Cl)cc2cnc(Nc3ccc(N4CCN(C)CC4)cc3)nc21
3. N#CC(=Cc1ccc(-c2cc(Cl)ccc2Cl)o1)C(=O)Nc1cccc2ncccc12
4. O=C1C(Cl)=C(N2CCOCC2)C(=O)N1c1ccc(Cl)c(Cl)c1
5. Nc1nc(N)c2nc(-c3cccc(O)c3)c(-c3cccc(O)c3)nc2n1

[24, 53.2, 112, 94, 107]

Short answer please: cell viability, MOLM14, entry O=C(NC[C@H](O)CN1CCc2ccccc2C1)c1cc(NC2COC2)ncn1
92.6
